Documented normalized RNA/DNA level with ligand (log10) across a set of variants
B1: library; a variant is named by its letters at N, in order (parent)
chain: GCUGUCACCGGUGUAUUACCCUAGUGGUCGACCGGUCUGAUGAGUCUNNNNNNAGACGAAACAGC

variants of: B1; test: normalized RNA/DNA level with ligand (relative to sTRSVctl = 100) (log10 (% of sTRSVctl)); ligand: hypoxanthine (xanthine aptamer); higher = less ribozyme self-cleavage, higher mRNA level; conditions: ligand concentration (+) RNA-Seq: 5 mM, HEK293T, reporter: mCherry (pCS4076), ligand present: yes
Answer with a bare number; do not write a unit.

Illustrative cases are given below, each with its answer.
• CUAGUG = 1.95
• CCUAAU = 1.94
• GCCGAU = 1.96
• UGCAAC = 1.96

Entry GUUCUA , normalized RNA/DNA level with ligand (log10) reported as 1.95

// field: normalized RNA/DNA level with ligand (log10); key: GGUGUG ; value = 1.78

Input CGUGAA . Output normalized RNA/DNA level with ligand (log10): 1.87

# variant UCAAUU ; its normalized RNA/DNA level with ligand (log10) = 1.96
